Provenance of the data: the supplement of paper PMC7877785

# Protocol Description: self-splicing fitness, log relative to wild type (ln ratio); higher = more splicing; Tetrahymena group I intron in knt gene, E. coli kanamycin selection, DiMSum; sequences stand for … in CUCUCU…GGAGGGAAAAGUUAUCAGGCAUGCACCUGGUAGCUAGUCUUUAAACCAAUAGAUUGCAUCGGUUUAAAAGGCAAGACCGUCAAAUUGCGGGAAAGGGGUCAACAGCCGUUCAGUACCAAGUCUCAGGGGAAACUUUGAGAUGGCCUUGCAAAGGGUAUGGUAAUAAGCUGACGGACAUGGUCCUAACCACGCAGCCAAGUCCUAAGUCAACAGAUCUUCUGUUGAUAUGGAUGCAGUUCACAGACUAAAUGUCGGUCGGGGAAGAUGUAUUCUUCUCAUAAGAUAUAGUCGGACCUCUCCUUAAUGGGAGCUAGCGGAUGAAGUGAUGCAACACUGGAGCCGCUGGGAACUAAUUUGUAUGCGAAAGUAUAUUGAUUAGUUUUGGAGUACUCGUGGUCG;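 also: selection with 25 µg/mL kanamycin versus none on LB agar overnight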
# Reported Conditions: 30 °C
Each entry falls in a class defined on self-splicing fitness (ln); the bands are bottom range: < -3; center range: ≥ -3 and < -2; top range: ≥ -2

Pick a category. Item: GCGCAGCAAUAUUACGUGUG bottom range

Form: Item = CUUGAGCAAUAUUACGGUUA ; Class = ? center range

Class for CGAUAGCAAUAUUACGGGGU ? bottom range

====

Each record here notes measured self-splicing fitness (ln).
# Protocol Description: self-splicing fitness, log relative to wild type (ln ratio); higher = more splicing; Tetrahymena group I intron in knt gene, E. coli kanamycin selection, DiMSum; sequences stand for … in CUCUCU…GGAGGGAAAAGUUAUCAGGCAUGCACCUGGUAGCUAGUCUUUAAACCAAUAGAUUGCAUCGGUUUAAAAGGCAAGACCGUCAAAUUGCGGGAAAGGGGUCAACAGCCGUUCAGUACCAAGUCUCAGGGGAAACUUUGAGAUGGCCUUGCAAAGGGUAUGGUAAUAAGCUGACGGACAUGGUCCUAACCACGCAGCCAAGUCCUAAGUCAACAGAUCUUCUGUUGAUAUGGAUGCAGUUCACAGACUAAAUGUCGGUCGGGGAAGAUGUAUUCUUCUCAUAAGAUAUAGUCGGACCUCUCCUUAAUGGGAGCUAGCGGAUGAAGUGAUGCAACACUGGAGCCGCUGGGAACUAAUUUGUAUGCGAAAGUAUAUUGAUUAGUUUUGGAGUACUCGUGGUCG
# Reported Conditions: 30 °C
Output: the number by itself.

// known answers, use as guide
GUUAAGCAAUAUUACGCCUA -0.752
CGUGAGCAAUAUUACGGUCU -2.56

Output self-splicing fitness (ln) of AGAUAGCAAUAUUACGCCGU -0.974

Look up and report measured self-splicing fitness (ln) for this entry: GUGAAGCAAUAUUACGGGCA -0.763

Output measured self-splicing fitness (ln) for this item: UGUAAGCAAUAUUACGGGUG -0.874

====

# self-splicing fitness (ln) values compiled below
# Protocol Description: self-splicing fitness, log relative to wild type (ln ratio); higher = more splicing; Tetrahymena group I intron in knt gene, E. coli kanamycin selection, DiMSum; sequences stand for … in CUCUCU…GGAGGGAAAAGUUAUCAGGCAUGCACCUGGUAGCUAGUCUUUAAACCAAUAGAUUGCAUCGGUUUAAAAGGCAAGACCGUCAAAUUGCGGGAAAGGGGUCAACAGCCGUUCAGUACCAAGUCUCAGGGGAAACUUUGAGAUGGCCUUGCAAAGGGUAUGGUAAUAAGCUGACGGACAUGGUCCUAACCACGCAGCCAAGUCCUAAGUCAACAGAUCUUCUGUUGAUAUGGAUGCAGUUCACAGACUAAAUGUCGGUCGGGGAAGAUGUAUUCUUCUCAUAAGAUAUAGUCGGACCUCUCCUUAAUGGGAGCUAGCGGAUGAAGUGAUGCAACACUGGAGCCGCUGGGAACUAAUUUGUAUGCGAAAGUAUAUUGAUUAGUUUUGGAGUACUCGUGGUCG
# Reported Conditions: 30 °C
Respond numerically, and do not add a unit to the figure.

Examples from the recorded data:
UCGGAGCAAUAUUACGCGUG 0.284
AGAAAGCAAUAUUACGGAUA -2.15
UCAGAGCAAUAUUACGUGUU -4.84

Please give the documented self-splicing fitness (ln) of CCGCAGCAAUAUUACGCCUG -1.69

Return reported self-splicing fitness (ln). Input sequence: CUAAAGCAAUAUUACGACGU -3.33

Assign self-splicing fitness (ln) to the following record: GACUAGCAAUAUUACGGAUA -1.4

Tell me measured self-splicing fitness (ln) for AAAGAGCAAUAUUACGACAA please. -2.27

====

# Protocol Description: self-splicing fitness, log relative to wild type (ln ratio); higher = more splicing; Tetrahymena group I intron in knt gene, E. coli kanamycin selection, DiMSum; sequences stand for … in CUCUCU…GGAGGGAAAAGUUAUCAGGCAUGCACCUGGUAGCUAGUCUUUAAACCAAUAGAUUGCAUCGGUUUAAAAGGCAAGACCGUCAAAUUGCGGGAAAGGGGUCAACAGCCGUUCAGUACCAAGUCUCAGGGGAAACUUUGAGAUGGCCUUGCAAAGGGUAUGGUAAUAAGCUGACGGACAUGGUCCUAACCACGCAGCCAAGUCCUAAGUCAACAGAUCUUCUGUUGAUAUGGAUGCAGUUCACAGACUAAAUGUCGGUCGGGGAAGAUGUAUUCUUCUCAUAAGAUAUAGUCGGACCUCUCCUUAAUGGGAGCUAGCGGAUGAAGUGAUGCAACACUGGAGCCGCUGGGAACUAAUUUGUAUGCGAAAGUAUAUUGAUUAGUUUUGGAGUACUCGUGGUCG
# Reported Conditions: 30 °C
The sequences listed here are annotated with their self-splicing fitness (ln).
Please reply with the number alone, leaving off any unit.

Give the reported self-splicing fitness (ln) for this sequence. AGCUAGCAAUAUUACGGUUG -1.95

Check the records and state self-splicing fitness (ln) for UCCGAGCAAUAUUACGAUUG -3.7

Fill in reported self-splicing fitness (ln) for this entry: CUGCAGCAAUAUUACGGCAG -2.63

====

# Protocol Description: self-splicing fitness, log relative to wild type (ln ratio); higher = more splicing; Tetrahymena group I intron in knt gene, E. coli kanamycin selection, DiMSum; sequences stand for … in CUCUCU…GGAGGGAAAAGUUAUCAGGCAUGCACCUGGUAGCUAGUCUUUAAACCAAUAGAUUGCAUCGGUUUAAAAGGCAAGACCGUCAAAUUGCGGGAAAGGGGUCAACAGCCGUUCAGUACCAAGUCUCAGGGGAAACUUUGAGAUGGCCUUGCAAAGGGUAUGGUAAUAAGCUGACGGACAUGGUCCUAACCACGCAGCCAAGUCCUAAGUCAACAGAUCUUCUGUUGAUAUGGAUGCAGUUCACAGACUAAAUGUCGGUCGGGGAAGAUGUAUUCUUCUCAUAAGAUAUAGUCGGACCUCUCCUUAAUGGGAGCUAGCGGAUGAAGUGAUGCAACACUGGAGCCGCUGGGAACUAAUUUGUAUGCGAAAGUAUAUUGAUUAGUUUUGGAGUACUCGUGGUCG
# Reported Conditions: 37 °C
Metric Name: self-splicing fitness (ln)

Below, each entry is followed by its recorded self-splicing fitness (ln) result.
UGCCAGCAAUAUUACGUUAG -0.975
GUGUAGCAAUAUUACGGGGA -2.41
CAACAGCAAUAUUACGUUGU -3.06
UUUUAGCAAUAUUACGCAUG -0.672
AACUAGCAAUAUUACGAUUU -0.157
GGGAAGCAAUAUUACGCUAC -1.84

Complete the entry with self-splicing fitness (ln) for UAUUAGCAAUAUUACGGAUA -0.897

Fill in self-splicing fitness (ln) for record AGCGAGCAAUAUUACGUGAA -1.23

Provide measured self-splicing fitness (ln) value, entry: GAAAAGCAAUAUUACGUCCA 0.0901

Consider the sequence GUGGAGCAAUAUUACGCUCA . State its measured self-splicing fitness (ln). -1.1

====

As shown below, each of these sequences has a reported self-splicing fitness (ln) value.
# Protocol Description: self-splicing fitness, log relative to wild type (ln ratio); higher = more splicing; Tetrahymena group I intron in knt gene, E. coli kanamycin selection, DiMSum; sequences stand for … in CUCUCU…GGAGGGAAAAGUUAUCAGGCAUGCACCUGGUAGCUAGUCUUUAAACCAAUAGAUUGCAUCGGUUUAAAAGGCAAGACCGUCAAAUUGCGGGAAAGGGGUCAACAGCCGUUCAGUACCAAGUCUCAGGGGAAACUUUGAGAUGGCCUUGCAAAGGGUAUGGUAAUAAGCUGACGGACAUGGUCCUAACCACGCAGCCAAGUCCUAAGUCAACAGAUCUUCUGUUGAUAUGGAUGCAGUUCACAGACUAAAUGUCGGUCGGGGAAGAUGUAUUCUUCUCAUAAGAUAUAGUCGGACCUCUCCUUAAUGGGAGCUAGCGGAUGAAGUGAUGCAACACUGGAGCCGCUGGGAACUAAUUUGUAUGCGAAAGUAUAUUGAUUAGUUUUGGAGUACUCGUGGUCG
# Reported Conditions: 30 °C
Write the value as a bare number.

UGUCAGCAAUAUUACGAACA -0.481

Kindly indicate its recorded self-splicing fitness (ln). Item: UUGAAGCAAUAUUACGAACU -1.61

Annotate the sequence GGGCAGCAAUAUUACGGGCA with its measured self-splicing fitness (ln). -2.14

Provide only the value of recorded self-splicing fitness (ln) for CCCCAGCAAUAUUACGUUUU -4.12

Consider the sequence AGCCAGCAAUAUUACGAGAA and give its recorded self-splicing fitness (ln). -2.99

Provide only the value of recorded self-splicing fitness (ln) for AUUGAGCAAUAUUACGAUCG -2.34

Fill in self-splicing fitness (ln) for record CAACAGCAAUAUUACGCUGU -2.11

Indicate its recorded self-splicing fitness (ln); the sequence in question is GGAUAGCAAUAUUACGUGUA -2.33
